Values from paper PMC6212790

Target: GST-Rok (full length) (Bacillus subtilis subsp. subtilis str. …, UniProt O34857 1-191)
Sequence: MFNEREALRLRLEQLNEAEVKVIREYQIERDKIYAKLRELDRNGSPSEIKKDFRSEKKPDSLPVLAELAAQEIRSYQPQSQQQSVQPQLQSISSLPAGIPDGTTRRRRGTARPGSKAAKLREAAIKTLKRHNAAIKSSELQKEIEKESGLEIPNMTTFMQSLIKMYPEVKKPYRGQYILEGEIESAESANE
Test: protein binding microarray; Rok is a gene silencer of Bacillus subtilis; high values mean tight binding
Conditions: protein: recombinant; tags: GST (pTH5325, pDEST15-Magic modified); dsDNA, one strand shown
In all, about 33,000 sequences were measured (“e-score”: median about -0.037, highest 2% from about 0.34 on). Many of the other results were omitted from the sample, so the highest values are more common in it than they were.
Sorting guide: entries reporting binding signal beneath 0.3 E-score go in the MET pile, the rest go in the NOT MET pile.

[
  {
    "CHAIN": "CCCGTTTC",
    "QUALITATIVE_LABEL": "MET"
  },
  {
    "CHAIN": "CTTCTTTC",
    "QUALITATIVE_LABEL": "MET"
  },
  {
    "CHAIN": "AGTAATAA",
    "QUALITATIVE_LABEL": "MET"
  },
  {
    "CHAIN": "ACTAATAC",
    "QUALITATIVE_LABEL": "MET"
  },
  {
    "CHAIN": "TAACTAAA",
    "QUALITATIVE_LABEL": "MET"
  },
  {
    "CHAIN": "CACTTATC",
    "QUALITATIVE_LABEL": "MET"
  },
  {
    "CHAIN": "ATGTAAAC",
    "QUALITATIVE_LABEL": "MET"
  },
  {
    "CHAIN": "CGTAGTAC",
    "QUALITATIVE_LABEL": "MET"
  },
  {
    "CHAIN": "TAGCGTAA",
    "QUALITATIVE_LABEL": "MET"
  },
  {
    "CHAIN": "ACCTTGGA",
    "QUALITATIVE_LABEL": "MET"
  },
  {
    "CHAIN": "ATACTGTA",
    "QUALITATIVE_LABEL": "NOT MET"
  },
  {
    "CHAIN": "AATATAGT",
    "QUALITATIVE_LABEL": "NOT MET"
  },
  {
    "CHAIN": "ACCGGCAG",
    "QUALITATIVE_LABEL": "MET"
  },
  {
    "CHAIN": "AGCTACCA",
    "QUALITATIVE_LABEL": "NOT MET"
  },
  {
    "CHAIN": "GGTAGGAC",
    "QUALITATIVE_LABEL": "MET"
  },
  {
    "CHAIN": "AAAATAGT",
    "QUALITATIVE_LABEL": "NOT MET"
  },
  {
    "CHAIN": "ACAGCGAT",
    "QUALITATIVE_LABEL": "MET"
  },
  {
    "CHAIN": "CGTAATAG",
    "QUALITATIVE_LABEL": "NOT MET"
  },
  {
    "CHAIN": "AGTAATAG",
    "QUALITATIVE_LABEL": "NOT MET"
  },
  {
    "CHAIN": "CCCGGCCG",
    "QUALITATIVE_LABEL": "MET"
  },
  {
    "CHAIN": "ACTAATAT",
    "QUALITATIVE_LABEL": "NOT MET"
  },
  {
    "CHAIN": "AGTAGTAC",
    "QUALITATIVE_LABEL": "NOT MET"
  },
  {
    "CHAIN": "AACCGCCC",
    "QUALITATIVE_LABEL": "MET"
  },
  {
    "CHAIN": "GCTACAGC",
    "QUALITATIVE_LABEL": "MET"
  },
  {
    "CHAIN": "ACCGGACT",
    "QUALITATIVE_LABEL": "MET"
  },
  {
    "CHAIN": "GGTGTGTA",
    "QUALITATIVE_LABEL": "MET"
  },
  {
    "CHAIN": "ATGTACAT",
    "QUALITATIVE_LABEL": "NOT MET"
  },
  {
    "CHAIN": "CATATAGA",
    "QUALITATIVE_LABEL": "MET"
  },
  {
    "CHAIN": "CGCGGTAA",
    "QUALITATIVE_LABEL": "MET"
  },
  {
    "CHAIN": "AACTCAGG",
    "QUALITATIVE_LABEL": "MET"
  },
  {
    "CHAIN": "ACTGATAA",
    "QUALITATIVE_LABEL": "MET"
  },
  {
    "CHAIN": "ATGCAGGA",
    "QUALITATIVE_LABEL": "MET"
  },
  {
    "CHAIN": "AGTAGTGC",
    "QUALITATIVE_LABEL": "MET"
  },
  {
    "CHAIN": "TCTATAGA",
    "QUALITATIVE_LABEL": "NOT MET"
  },
  {
    "CHAIN": "ATAGCCTC",
    "QUALITATIVE_LABEL": "MET"
  }
]
